Target: PfTrx-2 (Plasmodium falciparum thioredoxin-2, MAL13P1.225) (Plasmodium falciparum, UniProt Q8IDP4)
Sequence (Q8IDP4 28-157): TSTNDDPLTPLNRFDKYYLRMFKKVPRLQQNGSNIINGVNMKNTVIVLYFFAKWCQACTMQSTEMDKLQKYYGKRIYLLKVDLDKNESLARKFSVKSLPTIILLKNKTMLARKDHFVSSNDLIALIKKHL
ENDPOINT: IC50

Which value of IC50 has been reported for O=C(O)CC([S][Au])C(=O)O (racemic) [ATM, Aurothiomalate] in the records?
~20 µM
